Study System: ScMyo3
Test Description: SPOT peptide array binding signal intensity (averaged, normalized) (arbitrary units (background-subtracted, floor 0; scale differs between SH3 domains)); higher = stronger binding of the SH3 domain to the peptide
Measured Metric: SPOT peptide array binding signal intensity

Exam item: Recorded SPOT peptide array binding signal intensity of KDKKTKPTPPPKPSH , please.
Marked response: ≤ 0

Exam item: Recorded SPOT peptide array binding signal intensity of SHRLWLYAAPKRPKT , please.
Marked response: 10

Exam item: Recorded SPOT peptide array binding signal intensity of DKSRPPRPPPKPLHL , please.
Marked response: 170

Exam item: Recorded SPOT peptide array binding signal intensity of NPLPKEPRLPKRKVA , please.
Marked response: ≤ 0

Exam item: Recorded SPOT peptide array binding signal intensity of PPLPRAPPVPPATFE , please.
Marked response: 1100

Exam item: Recorded SPOT peptide array binding signal intensity of PSRRDSLSIPRAVDA , please.
Marked response: 0.5

Exam item: Recorded SPOT peptide array binding signal intensity of VNFRRIPTGPDSPPT , please.
Marked response: ≤ 0

Exam item: Recorded SPOT peptide array binding signal intensity of PAPPPPPRASRPTPN , please.
Marked response: 40.5

Exam item: Recorded SPOT peptide array binding signal intensity of KIRRSSLMIPNPQQF , please.
Marked response: 5

Exam item: Recorded SPOT peptide array binding signal intensity of VLRFLGFPLPIFEKG , please.
Marked response: 0.5

Exam item: Recorded SPOT peptide array binding signal intensity of IAPIPMPKPNPTHIS , please.
Marked response: ≤ 0

Exam item: Recorded SPOT peptide array binding signal intensity of SKSRLLIELPEGFFT , please.
Marked response: 1

Exam item: Recorded SPOT peptide array binding signal intensity of PSPSSSPPPIPKTAN , please.
Marked response: 2350

Exam item: Recorded SPOT peptide array binding signal intensity of TPEIPPPLPPKIMVH , please.
Marked response: 611

Exam item: Recorded SPOT peptide array binding signal intensity of LPPPPPPPPPPPLPQ , please.
Marked response: 1930
